Record form. Attribute: MIC. Fill in for each entry.
System: Staphylococcus aureus
test.description: Minimum inhibitory concentration against Staphylococcus aureus ATCC 13709; value ranges from 3-6 uM
Assay type: functional
Answers are plain numbers, in µM.

Respectfully, I request MIC for each entry included below.
1. O=C(NCCCNCc1ccc(Oc2ccccc2)cc1)Nc1ccc(C(F)(F)F)cc1
2. CN(CCCNC(=O)Nc1ccc(C(F)(F)F)cc1)CCCOc1ccc(Br)cc1Br
3. O=C(NCCCNCc1cc(Br)cc(Br)c1)Nc1ccc(C(F)(F)F)cc1
4. CC(C)(C)c1ccc(CNCCCNC(=O)Nc2ccc(C(F)(F)F)cc2)cc1

1. 6
2. 6
3. 6
4. 6

// for each compound below, give its MIC
1. O=C(NCCCNCc1ccc(-c2ccccc2)cc1)Nc1ccc(C(F)(F)F)cc1
2. CCOc1c(Br)cc(Br)cc1CNCCCNC(=O)Nc1ccc(C(F)(F)F)cc1
3. CC(=O)NCC1CN(c2ccc(N3CCOCC3)c(F)c2)C(=O)O1 (single isomer, unassigned)

[6, 6, 6]
